biological target: AGO2 A367P (Homo sapiens, UniProt Q9UKV8 1-859, A367P;S387D;S824A;S828D;S831D;S834A); assay: RNA Bind-n-Seq (nitrocellulose filter binding and sequencing); miR-122 guide loaded in AGO2; 60 min incubation; 30 mM Tris pH 8.0, 100 mM potassium acetate, 2 mM magnesium acetate, 0.5 mM TCEP, 0.005% NP-40, 0.01 mg/ml yeast tRNA; 3 nM AGO2-miR-122, 100 nM RNA library; 60; high values mean tight binding; settings: protein: recombinant; tags: His6 (N-terminal, pFastBac HTA)
Sequence (Q9UKV8 whole entry A367P/S387D/S824A/S828D/S831D/S834A): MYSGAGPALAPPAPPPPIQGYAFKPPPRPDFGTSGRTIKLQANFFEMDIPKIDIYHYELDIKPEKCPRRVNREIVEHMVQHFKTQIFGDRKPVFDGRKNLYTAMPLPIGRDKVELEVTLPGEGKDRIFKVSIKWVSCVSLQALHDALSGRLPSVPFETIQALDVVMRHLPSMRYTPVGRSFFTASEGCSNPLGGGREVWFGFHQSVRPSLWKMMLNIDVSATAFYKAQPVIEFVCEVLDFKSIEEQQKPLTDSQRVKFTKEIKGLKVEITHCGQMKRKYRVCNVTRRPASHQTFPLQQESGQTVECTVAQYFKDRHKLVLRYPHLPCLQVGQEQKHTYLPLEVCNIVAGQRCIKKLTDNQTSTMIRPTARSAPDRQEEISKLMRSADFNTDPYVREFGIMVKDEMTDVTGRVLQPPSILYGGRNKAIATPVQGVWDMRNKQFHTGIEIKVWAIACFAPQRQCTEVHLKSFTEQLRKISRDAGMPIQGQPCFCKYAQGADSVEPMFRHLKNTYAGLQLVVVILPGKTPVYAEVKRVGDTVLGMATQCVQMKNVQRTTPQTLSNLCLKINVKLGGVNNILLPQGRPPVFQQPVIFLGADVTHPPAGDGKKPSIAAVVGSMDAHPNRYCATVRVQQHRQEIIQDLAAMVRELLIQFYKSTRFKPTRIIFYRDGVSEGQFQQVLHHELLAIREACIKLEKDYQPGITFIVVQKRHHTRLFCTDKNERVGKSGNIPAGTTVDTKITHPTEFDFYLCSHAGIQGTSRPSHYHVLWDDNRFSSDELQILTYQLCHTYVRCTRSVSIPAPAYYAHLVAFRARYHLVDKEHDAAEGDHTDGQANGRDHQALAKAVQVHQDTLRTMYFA
EXPERIMENTAL_READOUT: binding signal

As a guide, the following entries are already answered.
>>> recorded_measurement("GCACTCTG (ssRNA, constant regions annealed to DNA blockers; guide miR-122 5' phosphate) RNA 1: GAGUUCUACAGUCCGACGAUCCCAACGCACUCUGCACCUGGAAUUCUCGGGUGCCAA RNA 2: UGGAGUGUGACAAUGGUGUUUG DNA 1: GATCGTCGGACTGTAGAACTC DNA 2: TTGGCACCCGAGAATTCCA")
"0.33 fold enrichment over input"
>>> recorded_measurement("GTGTTCCG (ssRNA, constant regions annealed to DNA blockers; guide miR-122 5' phosphate) RNA 1: GAGUUCUACAGUCCGACGAUCCCAACGUGUUCCGCACCUGGAAUUCUCGGGUGCCAA RNA 2: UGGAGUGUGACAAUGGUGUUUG DNA 1: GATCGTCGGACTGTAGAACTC DNA 2: TTGGCACCCGAGAATTCCA")
"0.144 fold enrichment over input"
>>> recorded_measurement("ACGCCCCG (ssRNA, constant regions annealed to DNA blockers; guide miR-122 5' phosphate) RNA 1: GAGUUCUACAGUCCGACGAUCCCAACACGCCCCGCACCUGGAAUUCUCGGGUGCCAA RNA 2: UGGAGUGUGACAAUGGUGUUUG DNA 1: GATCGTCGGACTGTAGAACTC DNA 2: TTGGCACCCGAGAATTCCA")
"0.155 fold enrichment over input"
>>> recorded_measurement("GCGTTCTG (ssRNA, constant regions annealed to DNA blockers; guide miR-122 5' phosphate) RNA 1: GAGUUCUACAGUCCGACGAUCCCAACGCGUUCUGCACCUGGAAUUCUCGGGUGCCAA RNA 2: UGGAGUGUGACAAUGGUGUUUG DNA 1: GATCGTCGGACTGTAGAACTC DNA 2: TTGGCACCCGAGAATTCCA")
"0.135 fold enrichment over input"
>>> recorded_measurement("GTACCCTG (ssRNA, constant regions annealed to DNA blockers; guide miR-122 5' phosphate) RNA 1: GAGUUCUACAGUCCGACGAUCCCAACGUACCCUGCACCUGGAAUUCUCGGGUGCCAA RNA 2: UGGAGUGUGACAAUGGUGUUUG DNA 1: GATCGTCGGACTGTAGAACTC DNA 2: TTGGCACCCGAGAATTCCA")
"0.129 fold enrichment over input"
>>> recorded_measurement("GTACTTTA (ssRNA, constant regions annealed to DNA blockers; guide miR-122 5' phosphate) RNA 1: GAGUUCUACAGUCCGACGAUCCCAACGUACUUUACACCUGGAAUUCUCGGGUGCCAA RNA 2: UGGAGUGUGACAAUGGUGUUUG DNA 1: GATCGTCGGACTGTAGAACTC DNA 2: TTGGCACCCGAGAATTCCA")
"0.161 fold enrichment over input"
>>> recorded_measurement("ACATCCCA (ssRNA, constant regions annealed to DNA blockers; guide miR-122 5' phosphate) RNA 1: GAGUUCUACAGUCCGACGAUCCCAACACAUCCCACACCUGGAAUUCUCGGGUGCCAA RNA 2: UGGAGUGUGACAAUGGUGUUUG DNA 1: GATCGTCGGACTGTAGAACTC DNA 2: TTGGCACCCGAGAATTCCA")
"0.325 fold enrichment over input"
>>> recorded_measurement("GCATCCTG (ssRNA, constant regions annealed to DNA blockers; guide miR-122 5' phosphate) RNA 1: GAGUUCUACAGUCCGACGAUCCCAACGCAUCCUGCACCUGGAAUUCUCGGGUGCCAA RNA 2: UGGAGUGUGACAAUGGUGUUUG DNA 1: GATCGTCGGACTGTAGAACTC DNA 2: TTGGCACCCGAGAATTCCA")
"0.13 fold enrichment over input"

Data request: Report binding signal for ACGCTCCG (ssRNA, constant regions annealed to DNA blockers; guide miR-122 5' phosphate) RNA 1: GAGUUCUACAGUCCGACGAUCCCAACACGCUCCGCACCUGGAAUUCUCGGGUGCCAA RNA 2: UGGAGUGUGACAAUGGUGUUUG DNA 1: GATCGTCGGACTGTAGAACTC DNA 2: TTGGCACCCGAGAATTCCA please.
Data returned: 14 fold enrichment over input

Data request: Another binder to check: GCATTTCG (ssRNA, constant regions annealed to DNA blockers; guide miR-122 5' phosphate) RNA 1: GAGUUCUACAGUCCGACGAUCCCAACGCAUUUCGCACCUGGAAUUCUCGGGUGCCAA RNA 2: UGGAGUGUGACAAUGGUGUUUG DNA 1: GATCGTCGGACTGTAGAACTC DNA 2: TTGGCACCCGAGAATTCCA
Data returned: 0.127 fold enrichment over input

Data request: Next binder up: ACACCTCA (ssRNA, constant regions annealed to DNA blockers; guide miR-122 5' phosphate) RNA 1: GAGUUCUACAGUCCGACGAUCCCAACACACCUCACACCUGGAAUUCUCGGGUGCCAA RNA 2: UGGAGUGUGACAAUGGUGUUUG DNA 1: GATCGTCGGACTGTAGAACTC DNA 2: TTGGCACCCGAGAATTCCA
Data returned: 0.835 fold enrichment over input

Data request: What do you get for ACGTCTTG (ssRNA, constant regions annealed to DNA blockers; guide miR-122 5' phosphate) RNA 1: GAGUUCUACAGUCCGACGAUCCCAACACGUCUUGCACCUGGAAUUCUCGGGUGCCAA RNA 2: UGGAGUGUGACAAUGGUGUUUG DNA 1: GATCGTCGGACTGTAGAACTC DNA 2: TTGGCACCCGAGAATTCCA ?
Data returned: 0.134 fold enrichment over input

Data request: Next up: GCGTTTTA (ssRNA, constant regions annealed to DNA blockers; guide miR-122 5' phosphate) RNA 1: GAGUUCUACAGUCCGACGAUCCCAACGCGUUUUACACCUGGAAUUCUCGGGUGCCAA RNA 2: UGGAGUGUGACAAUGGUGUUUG DNA 1: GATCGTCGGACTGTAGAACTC DNA 2: TTGGCACCCGAGAATTCCA
Data returned: 0.173 fold enrichment over input

Data request: Thanks! And GTACTCTG (ssRNA, constant regions annealed to DNA blockers; guide miR-122 5' phosphate) RNA 1: GAGUUCUACAGUCCGACGAUCCCAACGUACUCUGCACCUGGAAUUCUCGGGUGCCAA RNA 2: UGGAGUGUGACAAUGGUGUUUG DNA 1: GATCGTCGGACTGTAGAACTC DNA 2: TTGGCACCCGAGAATTCCA ?
Data returned: 0.134 fold enrichment over input

Data request: Also ACGTCCCA (ssRNA, constant regions annealed to DNA blockers; guide miR-122 5' phosphate) RNA 1: GAGUUCUACAGUCCGACGAUCCCAACACGUCCCACACCUGGAAUUCUCGGGUGCCAA RNA 2: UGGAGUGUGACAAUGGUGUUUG DNA 1: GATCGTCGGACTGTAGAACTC DNA 2: TTGGCACCCGAGAATTCCA , if possible.
Data returned: 0.255 fold enrichment over input
